Where do the numbers come from? From patent US20110250130A1.

- target: T1, Recombinant Human TNF-α/TNFSF1A (human, UniProt P01375 77-233)
- T1 construct: Bought reagent (R&D Systems 210-TA); also called hTNF-α; huTNF-α
- T1 sequence (P01375 77-233 limits assumed): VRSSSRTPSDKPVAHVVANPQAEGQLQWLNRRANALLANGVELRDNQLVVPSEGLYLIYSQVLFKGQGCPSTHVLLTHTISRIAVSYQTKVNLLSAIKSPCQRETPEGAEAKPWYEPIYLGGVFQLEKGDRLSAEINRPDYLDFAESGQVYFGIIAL
- procedure-text: SPR (Biacore), antibody captured, TNF-α in solution
Give measured koff for each item. Keep answers brief.
Numbers only, in s⁻¹.

Exercise: Suppose we examine the binder AB254 (antibody, V domains shown, also called hMAK195VH.2 / hMAK195VL.2) VH: EVQLVESGGGLVQPGGSLRLSCAASGFTFSDYGVNWVRQAPGKGLEWVSMIWGDGSTDYDSTLKSRFTISRDNSKNTLYLQMNSLRAEDTAVYYCAREWHHGPVAYWGQGTLVTVSS VL: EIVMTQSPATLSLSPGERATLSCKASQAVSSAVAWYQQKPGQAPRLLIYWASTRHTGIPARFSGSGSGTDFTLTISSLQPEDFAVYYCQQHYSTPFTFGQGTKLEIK ; what koff value has been reported?
Solution: 0.000287

Exercise: What does the record list as koff for AB249 (antibody, V domains shown, also called A3249; hMAK195VH.1b / hMAK195VL.1a) VH: EVQLQESGPGLVKPSETLSLTCTVSGFSLSDYGVNWIRQPPGKGLEWIGMIWGDGSTDYDSTLKSRVTISKDTSKNQFSLKLSSVTAADTAVYYCAREWHHGPVAYWGQGTLVTVSS VL: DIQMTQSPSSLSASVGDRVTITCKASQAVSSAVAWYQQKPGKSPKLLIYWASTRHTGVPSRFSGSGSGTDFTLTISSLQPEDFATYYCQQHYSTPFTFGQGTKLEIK ?
Solution: 0.000315

Exercise: Request the reported koff associated with AB248 (antibody, V domains shown, also called hMAK195VH.1b / hMAK195VL.1) VH: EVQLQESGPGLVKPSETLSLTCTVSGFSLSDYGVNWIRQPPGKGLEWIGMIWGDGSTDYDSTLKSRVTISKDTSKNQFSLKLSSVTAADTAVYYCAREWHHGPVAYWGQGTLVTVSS VL: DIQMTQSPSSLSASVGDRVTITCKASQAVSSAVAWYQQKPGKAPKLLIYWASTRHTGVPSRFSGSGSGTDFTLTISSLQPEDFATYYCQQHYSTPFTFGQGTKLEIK
Solution: 0.000316

Now for another entry.
Exercise: May I ask what koff has been recorded for AB252 (antibody, V domains shown, also called hMAK195VH.2 / hMAK195VL.1) VH: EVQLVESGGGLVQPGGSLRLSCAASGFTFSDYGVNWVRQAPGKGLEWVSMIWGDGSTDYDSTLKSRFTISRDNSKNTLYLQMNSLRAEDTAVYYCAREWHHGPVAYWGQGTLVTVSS VL: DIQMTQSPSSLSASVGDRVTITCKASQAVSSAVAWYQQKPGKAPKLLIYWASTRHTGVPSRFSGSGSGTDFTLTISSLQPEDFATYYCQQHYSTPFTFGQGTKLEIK ?
Solution: 0.000252
